Source listed as ChEMBL document CHEMBL1142531.

# measurementNotes: Half life in rat at 1 mg/kg, iv
# Format: ADME, organism-based
# Design: dose 1 mg/kg, route intravenous
# experimentalParameters: in vivo
quantity: half-life (min)
The reply should contain only the number, in min.

Ask | Hello, please tell me recorded half-life for this one: Cc1c(C2=CCN(C(=O)N(C)C(C)C)CC2)nnn1-c1cccnc1F
Reply | 12

----------
# measurementNotes: Total plasma clearance in rat at 1 mg/kg, iv
# Assay type: ADME, organism-based
# Set-up: dose 1 mg/kg, route intravenous
quantity: clearance (mL/min/kg)
Numbers only here, please. The scale is mL/min/kg.

Ask | Supply recorded clearance for Cc1c(C2=CCN(C(=O)N(C)C(C)C)CC2)nnn1-c1cccnc1F here.
Reply | 57

----------
# studyTarget: Metabotropic glutamate receptor 1 (Mus musculus, UniProt P97772)
# Sequence (P97772 whole entry): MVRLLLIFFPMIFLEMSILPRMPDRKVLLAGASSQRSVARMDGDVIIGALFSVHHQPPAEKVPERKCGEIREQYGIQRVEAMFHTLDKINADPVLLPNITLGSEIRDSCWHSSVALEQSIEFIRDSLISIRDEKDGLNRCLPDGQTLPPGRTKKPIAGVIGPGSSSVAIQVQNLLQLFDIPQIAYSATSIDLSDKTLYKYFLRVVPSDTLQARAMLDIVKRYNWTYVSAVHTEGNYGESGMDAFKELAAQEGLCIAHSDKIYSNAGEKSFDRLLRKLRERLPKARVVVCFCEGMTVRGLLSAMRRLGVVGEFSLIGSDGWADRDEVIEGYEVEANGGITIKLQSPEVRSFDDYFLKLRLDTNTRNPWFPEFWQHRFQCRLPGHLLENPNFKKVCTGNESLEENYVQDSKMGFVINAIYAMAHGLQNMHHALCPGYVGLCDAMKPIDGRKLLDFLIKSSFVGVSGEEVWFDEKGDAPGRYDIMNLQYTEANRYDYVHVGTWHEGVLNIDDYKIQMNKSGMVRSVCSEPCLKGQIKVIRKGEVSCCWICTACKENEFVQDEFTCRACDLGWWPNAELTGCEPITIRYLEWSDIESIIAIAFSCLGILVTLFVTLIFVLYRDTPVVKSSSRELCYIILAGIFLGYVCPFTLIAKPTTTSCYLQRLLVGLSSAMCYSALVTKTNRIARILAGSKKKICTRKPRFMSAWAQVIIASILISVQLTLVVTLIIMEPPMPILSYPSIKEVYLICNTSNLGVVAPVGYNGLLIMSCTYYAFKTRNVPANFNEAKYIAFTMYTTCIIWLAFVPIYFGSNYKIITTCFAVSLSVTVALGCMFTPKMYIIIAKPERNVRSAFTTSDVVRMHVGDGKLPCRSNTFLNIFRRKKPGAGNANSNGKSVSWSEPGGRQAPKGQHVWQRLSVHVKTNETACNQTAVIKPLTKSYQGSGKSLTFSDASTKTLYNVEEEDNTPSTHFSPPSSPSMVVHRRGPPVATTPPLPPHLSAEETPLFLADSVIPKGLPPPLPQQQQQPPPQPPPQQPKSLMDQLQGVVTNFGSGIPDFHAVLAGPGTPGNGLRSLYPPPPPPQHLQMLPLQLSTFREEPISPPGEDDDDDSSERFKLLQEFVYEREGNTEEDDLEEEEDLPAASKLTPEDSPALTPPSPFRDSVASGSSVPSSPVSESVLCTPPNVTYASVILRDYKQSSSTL
# measurementNotes: Antagonist activity at mouse mGluR1 expressed in CHO cells assessed as calcium flux by FLIPR assay
quantity: pIC50
Scale: pIC50 equals -log10([C]), with [C] in mol/L.

Ask | Assign pIC50 to the following record: CC(C)(C)OC(=O)N1CC=C(c2cn(-c3cccnc3)nn2)CC1
Reply | 6.74

Ask | Read the entry CC(C)(C)OC(=O)N1CC=C(c2cn(-c3ccncc3)nn2)CC1 and write its reported pIC50.
Reply | 6.00

Ask | Could you please provide reported pIC50 for CC(C)(C)OC(=O)N1CC=C(c2cn(-c3ccc(F)cc3)nn2)CC1 ? Thanks!
Reply | 7.51

Ask | Look up and report measured pIC50 for this entry: Cc1c(C2=CCN(C(=O)OC(C)C)CC2)nnn1-c1cccnc1F
Reply | 8.48

Ask | Assign pIC50 to the following record: Cc1c(C2=CCN(C(=O)OC(C)(C)C)CC2)nnn1-c1cccnc1F
Reply | 8.82

Ask | Identify measured pIC50 associated with CC(C)(C)NC(=O)N1CC=C(c2cn(-c3ccccc3F)nn2)CC1
Reply | 6.54

Ask | # return recorded pIC50 for input CC(C)(C)OC(=O)N1CC=C(c2cn(-c3ccccc3F)nn2)CC1
Reply | 7.80

Ask | Dear colleague, please send me the reported pIC50 for CC(C)(C)OC(=O)N1CC=C(c2cn(-c3cccnc3F)nn2)CC1 when you can.
Reply | 7.92

Ask | Give a short answer stating reported pIC50 for CC(C)(C)CC(=O)N1CC=C(c2cn(-c3ccccc3F)nn2)CC1 .
Reply | 6.80

Ask | For COc1ccccc1-n1cc(C2=CCN(C(=O)OC(C)(C)C)CC2)nn1 , write its pIC50.
Reply | 5.80

----------
# measurementNotes: Octanol-water partition coefficient, log D at pH 7.4 by shake flask method
# Type: physicochemical
Label rule, in plain words: logD of 3 and up is Y, under 3 is N.

Ask | Is reported logD greater than or equal to 3 here: Cc1c(C2=CCN(C(=O)N(C)C(C)C)CC2)nnn1-c1cccnc1F
Reply | N

Ask | Hi team, for Cc1c(C2=CCN(C(=O)OC(C)C)CC2)nnn1-c1cccnc1F , is the recorded logD at or above 3?
Reply | N

Ask | Quick check, logD >= 3? CC(C)(C)OC(=O)N1CC=C(c2cn(-c3ccccn3)nn2)CC1
Reply | Y

Ask | Does CC(C)(C)OC(=O)N1CC=C(c2cn(-c3ccccc3)nn2)CC1 have a reported logD of at least 3?
Reply | Y

Ask | # bool: logD of CC(C)(C)OC(=O)N1CC=C(c2cn(-c3ccccc3F)nn2)CC1 >= 3
Reply | Y

Ask | Say whether Cc1ccccc1-n1cc(C2=CCN(C(=O)OC(C)(C)C)CC2)nn1 shows logD of 3 or more.
Reply | Y

Ask | Answer whether logD of Cc1c(C2=CCN(C(=O)OC(C)(C)C)CC2)nnn1-c1cccnc1F is greater than or equal to 3.
Reply | N

Ask | Please tell me: is the compound CC(C)OC(=O)N1CC=C(c2cn(-c3cccnc3F)nn2)CC1 at or over 3 in terms of logD?
Reply | N

Ask | Has CC(C)(C)OC(=O)N1CC=C(c2cn(-c3cccc(F)c3)nn2)CC1 a recorded logD greater than or equal to 3?
Reply | Y

Ask | # bool: logD of CC(C)(C)NC(=O)N1CC=C(c2cn(-c3ccccc3F)nn2)CC1 >= 3
Reply | Y

Ask | Determine whether this compound has logD no lower than 3: CC(C)(C)OC(=O)N1CC=C(c2cn(-c3ccc(F)cc3)nn2)CC1
Reply | Y

Ask | Has CC(C)(C)OC(=O)N1CC=C(c2cn(-c3cccnc3F)nn2)CC1 a recorded logD greater than or equal to 3?
Reply | Y
